Below are molecules with their IC50 as measured on IRAK4 kinase (Homo sapiens (Human), UniProt Q9NWZ3).
Sequence (Q9NWZ3 whole entry): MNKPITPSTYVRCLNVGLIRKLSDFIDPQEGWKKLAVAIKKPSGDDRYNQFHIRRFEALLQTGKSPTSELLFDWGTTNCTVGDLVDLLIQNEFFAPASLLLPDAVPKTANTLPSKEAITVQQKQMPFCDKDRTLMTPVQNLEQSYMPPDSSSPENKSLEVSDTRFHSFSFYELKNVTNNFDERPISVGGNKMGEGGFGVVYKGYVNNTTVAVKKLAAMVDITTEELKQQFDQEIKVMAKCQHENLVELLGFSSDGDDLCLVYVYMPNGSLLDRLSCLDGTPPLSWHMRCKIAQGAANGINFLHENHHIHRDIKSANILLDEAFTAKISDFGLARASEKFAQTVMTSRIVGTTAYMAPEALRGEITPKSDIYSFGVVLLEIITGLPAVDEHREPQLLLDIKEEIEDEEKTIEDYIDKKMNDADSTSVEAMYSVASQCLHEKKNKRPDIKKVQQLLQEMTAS

Look over these answered cases.
[Q] Looking for the measured IC50 of C[C@]1(O)CC[C@H](Nc2nc(Nc3cc(C(=O)Nc4ccccc4)ns3)nc3ccsc23)CC1 , can you help?
[A] 1000 to 10000 nM

[Q] If you can, please state the reported IC50 value of O[C@H]1CC[C@H](Nc2nc(Nc3cnn(-c4cncnc4)c3)nc3ccsc23)CC1 .
[A] 100 to 1000 nM

[Q] # input molecule: O[C@H]1CC[C@H](Nc2nc(Nc3cnn(-c4ccccc4)c3)nc3ccsc23)CC1 ; wanted: its IC50
[A] ≤ 100 nM

More entries:
[Q] Entry C[C@]1(O)CC[C@H](Nc2nc(Nc3cc(C(=O)NCC4CCNCC4)ns3)nc3ccsc23)CC1 has what IC50?
[A] ≤ 100 nM

====

Notes on IC50 obtained with IRAK4 kinase (Homo sapiens (Human), UniProt Q9NWZ3).

[Q] Entry CO[C@H]1CC[C@H](Nc2nc(Nc3cc(C)ns3)nc3ccsc23)CC1 , system IRAK4 kinase (Homo sapiens (Human), UniProt Q9NWZ3): what IC50 was measured?
[A] 100 to 1000 nM

[Q] Notebook: pull reported IC50 for IRAK4 kinase (Homo sapiens (Human), UniProt Q9NWZ3), entry CN[C@H]1CC[C@@H](Nc2nc(Nc3cc(C)ns3)nc3ccsc23)CC1
[A] 100 to 1000 nM

====

pIC50: −log10 of the molar value.
Record: pIC50 reported on IRAK4 kinase (Homo sapiens (Human), UniProt Q9NWZ3).

[Q] Which pIC50 reading was recorded for the compound COc1cc(Nc2nc(N[C@@H]3C[C@H](CO)[C@@H](O)[C@H]3O)c3sccc3n2)ccn1 ?
[A] ≥ 7.00

[Q] Requested read-out: pIC50. Entry: CN1CCN(Cc2cc(Nc3nc(N[C@H]4CC[C@](C)(O)CC4)c4sccc4n3)sn2)CC1
[A] 5.00 to 6.00

[Q] Item Cc1cc(Nc2nc(NC3CCC(CO)CC3)c3sccc3n2)sn1 (centres unmarked) has what recorded pIC50?
[A] ≥ 7.00

[Q] Form field: reported pIC50 of COCCNC(=O)c1csc(Nc2nc(N[C@H]3CC[C@](C)(O)CC3)c3sccc3n2)c1
[A] 6.00 to 7.00

[Q] I have this compound here, C[C@]1(O)CC[C@H](Nc2nc(Nc3cc(C(=O)Nc4ccncc4)ns3)nc3ccsc23)CC1 , and I need its recorded pIC50.
[A] 6.00 to 7.00

[Q] Requested read-out: pIC50. Entry: Cc1cc(Nc2nc(N[C@H]3CC[C@H](N(C)C)CC3)c3sccc3n2)sn1
[A] ≥ 7.00

[Q] GET /values?readout=pIC50&item= CN[C@H]1CC[C@H](Nc2nc(Nc3cc(C)ns3)nc3ccsc23)CC1
[A] 6.00 to 7.00

[Q] Fill in the blank: the reported pIC50 of CCN(CC)[C@H]1CC[C@H](Nc2nc(Nc3cc(C)ns3)nc3ccsc23)CC1 is ____.
[A] ≥ 7.00

More entries:
[Q] Need pIC50, item CN(C)C1CCN(C(=O)c2ccc(Nc3nc(N[C@H]4CC[C@H](O)CC4)c4sccc4n3)cc2)CC1
[A] 6.00 to 7.00

[Q] pIC50 lookup needed for Cc1cc(Nc2nc(N[C@H]3CC[C@](C)(O)CC3)c3sccc3n2)sn1 , thanks.
[A] ≥ 7.00

[Q] For the compound shown here, Cc1ncccc1-n1cc(Nc2nc(N[C@H]3CC[C@H](O)CC3)c3sccc3n2)cn1 , give the reported pIC50.
[A] 5.00 to 6.00

[Q] I'd like to know its pIC50. The compound in question is C[C@]1(O)CC[C@H](Nc2nc(Nc3ccc(C(=O)N[C@@H]4CCNC4)cc3)nc3ccsc23)CC1
[A] 6.00 to 7.00

[Q] Consider the compound Cc1cc(Nc2nc(N[C@H]3CC[C@@H](O)C3)c3sccc3n2)sn1 and give its measured pIC50.
[A] ≥ 7.00

[Q] Fill blank: measured pIC50 of the compound Cc1cc(Nc2nc(N[C@H]3C[C@@H](N)C3)c3sccc3n2)sn1 is ____.
[A] ≥ 7.00
